Target: 348 GPCRs (Homo sapiens)
Construct: expressed in transfected cells; host or cells: HEK293A
Assay: TGFα-shedding assay-based GPCR screening with chimeric Gα subunit proteins
Type: cell-based
Conditions: GPCR CMKLR1 (chemerin chemokine-like receptor 1); 10µM
RECORDED_METRIC: % GPCR activation compared to TPA (%)

test_smiles=CCC(CC)COC(=O)[C@H](C)N[P@](=O)(OC[C@H]1O[C@@](C#N)(c2ccc3c(N)ncnn23)[C@H](O)[C@@H]1O)Oc1ccccc1 observed_value=-1.376
test_smiles=CC(C)C(=O)OC[C@H]1O[C@@H](n2ccc(NO)nc2=O)[C@H](O)[C@@H]1O observed_value=-0.3127
test_smiles=N#C[C@@]1(c2ccc3c(N)ncnn23)O[C@H](CO)[C@@H](O)[C@H]1O observed_value=-4.934
test_smiles=CC(C)OC(=O)[C@H](C)N[P@](=O)(OC[C@H]1O[C@@H](n2ccc(=O)[nH]c2=O)[C@](C)(F)[C@@H]1O)Oc1ccccc1 observed_value=-0.9389

----------
% GPCR activation compared to TPA: recorded values
Molecular target: 348 GPCRs (Homo sapiens, UniProt P32248)
Construct: expressed in transfected cells; host or cells: HEK293A
Sequence (P32248 25-378): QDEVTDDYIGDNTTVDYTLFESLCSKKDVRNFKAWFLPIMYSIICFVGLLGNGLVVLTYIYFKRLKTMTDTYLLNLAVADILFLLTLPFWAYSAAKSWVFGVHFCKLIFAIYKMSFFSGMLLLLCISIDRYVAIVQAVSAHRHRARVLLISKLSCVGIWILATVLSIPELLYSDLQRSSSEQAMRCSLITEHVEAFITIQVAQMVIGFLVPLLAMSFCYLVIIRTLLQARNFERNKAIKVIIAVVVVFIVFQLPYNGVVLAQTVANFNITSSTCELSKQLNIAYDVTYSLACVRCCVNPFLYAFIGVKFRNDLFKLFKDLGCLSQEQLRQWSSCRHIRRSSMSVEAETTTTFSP
Test: TGFα-shedding assay-based GPCR screening with chimeric Gα subunit proteins
Assay type: cell-based
Conditions: CCR7 (C-C motif chemokine receptor 7); 10µM, Favipiravir 100μM
RECORDED_METRIC: % GPCR activation compared to TPA (%)

compound=CC(C)C(=O)OC[C@H]1O[C@@H](n2ccc(NO)nc2=O)[C@H](O)[C@@H]1O recorded_metric="% GPCR activation compared to TPA" measurement_units=% observed_value=0.5462
compound=CC(C)OC(=O)[C@H](C)N[P@](=O)(OC[C@H]1O[C@@H](n2ccc(=O)[nH]c2=O)[C@](C)(F)[C@@H]1O)Oc1ccccc1 recorded_metric="% GPCR activation compared to TPA" measurement_units=% observed_value=-0.9167
compound=N#C[C@@]1(c2ccc3c(N)ncnn23)O[C@H](CO)[C@@H](O)[C@H]1O recorded_metric="% GPCR activation compared to TPA" measurement_units=% observed_value=-0.998
compound="NC(=O)c1nc(F)cnc1O [favipiravir, 6-fluoro-3-hydroxy-2-pyrazinecarboxamide]" recorded_metric="% GPCR activation compared to TPA" measurement_units=% observed_value=-0.3349

----------
Biological target: 348 GPCRs (Homo sapiens, UniProt Q99677)
Construct: expressed in transfected cells; host or cells: HEK293A
Sequence (Q99677 whole entry): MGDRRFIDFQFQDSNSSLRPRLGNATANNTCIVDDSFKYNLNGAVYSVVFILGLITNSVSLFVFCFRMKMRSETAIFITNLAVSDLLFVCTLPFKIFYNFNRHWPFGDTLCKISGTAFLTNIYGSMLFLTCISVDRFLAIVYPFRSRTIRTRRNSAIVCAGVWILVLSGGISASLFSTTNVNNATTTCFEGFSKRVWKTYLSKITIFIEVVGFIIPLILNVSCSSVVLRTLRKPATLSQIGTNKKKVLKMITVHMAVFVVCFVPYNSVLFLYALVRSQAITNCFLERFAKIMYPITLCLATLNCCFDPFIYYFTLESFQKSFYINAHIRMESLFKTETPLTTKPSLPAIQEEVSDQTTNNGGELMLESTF
Experiment: TGFα-shedding assay-based GPCR screening with chimeric Gα subunit proteins
Format: cell-based
Conditions: LPAR4 (lysophosphatidic acid receptor 4); 10µM, Favipiravir 100μM
RECORDED_METRIC: % GPCR activation compared to TPA (%)

compound="CCC(CC)COC(=O)[C@H](C)N[P@](=O)(OC[C@H]1O[C@@](C#N)(c2ccc3c(N)ncnn23)[C@H](O)[C@@H]1O)Oc1ccccc1 [remdesivir]" observed_value=-0.0834
compound="NC(=O)c1nc(F)cnc1O [favipiravir, 6-fluoro-3-hydroxy-2-pyrazinecarboxamide]" observed_value=-0.5456
compound="CC(C)OC(=O)[C@H](C)N[P@](=O)(OC[C@H]1O[C@@H](n2ccc(=O)[nH]c2=O)[C@](C)(F)[C@@H]1O)Oc1ccccc1 [sofosbuvir]" observed_value=3.133
compound="N#C[C@@]1(c2ccc3c(N)ncnn23)O[C@H](CO)[C@@H](O)[C@H]1O [GS441524]" observed_value=1.193
compound="CC(C)C(=O)OC[C@H]1O[C@@H](n2ccc(NO)nc2=O)[C@H](O)[C@@H]1O [molnupiravir]" observed_value=-0.2125

----------
% GPCR activation compared to TPA: recorded values
Target: 348 GPCRs (Homo sapiens, UniProt Q9NSD7)
Construct: expressed in transfected cells; host or cells: HEK293A
Sequence (Q9NSD7 whole entry): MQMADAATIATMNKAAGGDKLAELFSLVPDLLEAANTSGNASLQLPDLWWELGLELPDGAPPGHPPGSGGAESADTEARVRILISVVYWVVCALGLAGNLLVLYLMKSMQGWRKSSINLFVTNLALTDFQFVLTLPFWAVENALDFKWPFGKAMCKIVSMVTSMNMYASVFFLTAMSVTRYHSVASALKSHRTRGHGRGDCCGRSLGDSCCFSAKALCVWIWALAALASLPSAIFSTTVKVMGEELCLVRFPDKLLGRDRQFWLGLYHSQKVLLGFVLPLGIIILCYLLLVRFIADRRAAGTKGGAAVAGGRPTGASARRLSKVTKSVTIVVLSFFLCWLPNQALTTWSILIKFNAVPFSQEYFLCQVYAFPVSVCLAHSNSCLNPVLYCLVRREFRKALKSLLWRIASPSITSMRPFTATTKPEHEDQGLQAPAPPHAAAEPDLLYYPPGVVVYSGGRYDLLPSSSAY
Test: TGFα-shedding assay-based GPCR screening with chimeric Gα subunit proteins
Type: cell-based
Conditions: RXFP3 (relaxin/insulin-like family peptide receptor 3); 10µM, Favipiravir 100μM
RECORDED_METRIC: % GPCR activation compared to TPA

molecule="NC(=O)c1nc(F)cnc1O [favipiravir, 6-fluoro-3-hydroxy-2-pyrazinecarboxamide]" observed_value=1.399%
molecule="CC(C)C(=O)OC[C@H]1O[C@@H](n2ccc(NO)nc2=O)[C@H](O)[C@@H]1O [molnupiravir]" observed_value=-2.923%
molecule="CCC(CC)COC(=O)[C@H](C)N[P@](=O)(OC[C@H]1O[C@@](C#N)(c2ccc3c(N)ncnn23)[C@H](O)[C@@H]1O)Oc1ccccc1 [remdesivir]" observed_value=3.551%
molecule="CC(C)OC(=O)[C@H](C)N[P@](=O)(OC[C@H]1O[C@@H](n2ccc(=O)[nH]c2=O)[C@](C)(F)[C@@H]1O)Oc1ccccc1 [sofosbuvir]" observed_value=-2.192%
molecule="N#C[C@@]1(c2ccc3c(N)ncnn23)O[C@H](CO)[C@@H](O)[C@H]1O [GS441524]" observed_value=1.985%

----------
% GPCR activation compared to TPA: recorded values
Biological target: 348 GPCRs (Homo sapiens)
Construct: expressed in transfected cells; host or cells: HEK293A
Sequence (Q14330 1-331): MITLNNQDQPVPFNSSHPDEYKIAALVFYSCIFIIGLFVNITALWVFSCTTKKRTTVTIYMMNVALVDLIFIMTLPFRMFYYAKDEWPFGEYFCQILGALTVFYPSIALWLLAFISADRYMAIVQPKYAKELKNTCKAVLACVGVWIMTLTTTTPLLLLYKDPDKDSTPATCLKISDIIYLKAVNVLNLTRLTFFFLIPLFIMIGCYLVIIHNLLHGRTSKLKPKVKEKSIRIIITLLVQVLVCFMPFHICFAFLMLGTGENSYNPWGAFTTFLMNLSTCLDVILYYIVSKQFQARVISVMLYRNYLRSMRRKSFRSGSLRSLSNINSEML
Assay: TGFα-shedding assay-based GPCR screening with chimeric Gα subunit proteins
Type: cell-based
Settings: GPR18 (G protein-coupled receptor 18); 10µM, Favipiravir 100μM
RECORDED_METRIC: % GPCR activation compared to TPA (%)

compound="CCC(CC)COC(=O)[C@H](C)N[P@](=O)(OC[C@H]1O[C@@](C#N)(c2ccc3c(N)ncnn23)[C@H](O)[C@@H]1O)Oc1ccccc1 [remdesivir]" measurement_units=% observed_value=1.118
compound="CC(C)C(=O)OC[C@H]1O[C@@H](n2ccc(NO)nc2=O)[C@H](O)[C@@H]1O [molnupiravir]" measurement_units=% observed_value=-5.385
compound="NC(=O)c1nc(F)cnc1O [favipiravir, 6-fluoro-3-hydroxy-2-pyrazinecarboxamide]" measurement_units=% observed_value=-1
compound="CC(C)OC(=O)[C@H](C)N[P@](=O)(OC[C@H]1O[C@@H](n2ccc(=O)[nH]c2=O)[C@](C)(F)[C@@H]1O)Oc1ccccc1 [sofosbuvir]" measurement_units=% observed_value=-3.042
compound="N#C[C@@]1(c2ccc3c(N)ncnn23)O[C@H](CO)[C@@H](O)[C@H]1O [GS441524]" measurement_units=% observed_value=2.081

----------
% GPCR activation compared to TPA: recorded values
Molecular target: 348 GPCRs (Homo sapiens)
Construct: expressed in transfected cells; host or cells: HEK293A
Assay: TGFα-shedding assay-based GPCR screening with chimeric Gα subunit proteins
Assay type: cell-based
Conditions: HCRTR2 (hypocretin (orexin) receptor 2); 10µM, Favipiravir 100μM
RECORDED_METRIC: % GPCR activation compared to TPA (%)

compound=CCC(CC)COC(=O)[C@H](C)N[P@](=O)(OC[C@H]1O[C@@](C#N)(c2ccc3c(N)ncnn23)[C@H](O)[C@@H]1O)Oc1ccccc1 recorded_metric="% GPCR activation compared to TPA" observed_value=0.0002648
compound=CC(C)OC(=O)[C@H](C)N[P@](=O)(OC[C@H]1O[C@@H](n2ccc(=O)[nH]c2=O)[C@](C)(F)[C@@H]1O)Oc1ccccc1 recorded_metric="% GPCR activation compared to TPA" observed_value=-1.966
compound=N#C[C@@]1(c2ccc3c(N)ncnn23)O[C@H](CO)[C@@H](O)[C@H]1O recorded_metric="% GPCR activation compared to TPA" observed_value=2.174
compound="NC(=O)c1nc(F)cnc1O [favipiravir, 6-fluoro-3-hydroxy-2-pyrazinecarboxamide]" recorded_metric="% GPCR activation compared to TPA" observed_value=0.7248
compound=CC(C)C(=O)OC[C@H]1O[C@@H](n2ccc(NO)nc2=O)[C@H](O)[C@@H]1O recorded_metric="% GPCR activation compared to TPA" observed_value=0.4774

----------
activation at 100 µM: recorded values
Target: 348 GPCRs (Homo sapiens)
Assay: TGFα-shedding assay-based GPCR screening with chimeric Gα subunit proteins
Format: cell-based
Conditions: read-out: % GPCR activation compared to TPA, OPRK1 (opioid receptor, kappa 1 (KOR)); 10µM, Favipiravir 100μM
RECORDED_METRIC: activation at 100 µM (%)

compound="NC(=O)c1nc(F)cnc1O [favipiravir, 6-fluoro-3-hydroxy-2-pyrazinecarboxamide]" recorded_metric="activation at 100 µM" observed_value=-1.65
compound=CCC(CC)COC(=O)[C@H](C)N[P@](=O)(OC[C@H]1O[C@@](C#N)(c2ccc3c(N)ncnn23)[C@H](O)[C@@H]1O)Oc1ccccc1 recorded_metric="activation at 100 µM" observed_value=6.17
compound=CC(C)C(=O)OC[C@H]1O[C@@H](n2ccc(NO)nc2=O)[C@H](O)[C@@H]1O recorded_metric="activation at 100 µM" observed_value=-1.39
compound=CC(C)OC(=O)[C@H](C)N[P@](=O)(OC[C@H]1O[C@@H](n2ccc(=O)[nH]c2=O)[C@](C)(F)[C@@H]1O)Oc1ccccc1 recorded_metric="activation at 100 µM" observed_value=-1.11
compound=N#C[C@@]1(c2ccc3c(N)ncnn23)O[C@H](CO)[C@@H](O)[C@H]1O recorded_metric="activation at 100 µM" observed_value=-1.93

All values here come from paper PMC10175918.
